The measured values listed here are drawn from patent US9260439B2.

# TESTED ON: truncated PI3Kα (p110α/iSH2 p85α) (Homo sapiens (Human), UniProt P42336)
# Sequence (P42336 whole entry, the tested form may be a part): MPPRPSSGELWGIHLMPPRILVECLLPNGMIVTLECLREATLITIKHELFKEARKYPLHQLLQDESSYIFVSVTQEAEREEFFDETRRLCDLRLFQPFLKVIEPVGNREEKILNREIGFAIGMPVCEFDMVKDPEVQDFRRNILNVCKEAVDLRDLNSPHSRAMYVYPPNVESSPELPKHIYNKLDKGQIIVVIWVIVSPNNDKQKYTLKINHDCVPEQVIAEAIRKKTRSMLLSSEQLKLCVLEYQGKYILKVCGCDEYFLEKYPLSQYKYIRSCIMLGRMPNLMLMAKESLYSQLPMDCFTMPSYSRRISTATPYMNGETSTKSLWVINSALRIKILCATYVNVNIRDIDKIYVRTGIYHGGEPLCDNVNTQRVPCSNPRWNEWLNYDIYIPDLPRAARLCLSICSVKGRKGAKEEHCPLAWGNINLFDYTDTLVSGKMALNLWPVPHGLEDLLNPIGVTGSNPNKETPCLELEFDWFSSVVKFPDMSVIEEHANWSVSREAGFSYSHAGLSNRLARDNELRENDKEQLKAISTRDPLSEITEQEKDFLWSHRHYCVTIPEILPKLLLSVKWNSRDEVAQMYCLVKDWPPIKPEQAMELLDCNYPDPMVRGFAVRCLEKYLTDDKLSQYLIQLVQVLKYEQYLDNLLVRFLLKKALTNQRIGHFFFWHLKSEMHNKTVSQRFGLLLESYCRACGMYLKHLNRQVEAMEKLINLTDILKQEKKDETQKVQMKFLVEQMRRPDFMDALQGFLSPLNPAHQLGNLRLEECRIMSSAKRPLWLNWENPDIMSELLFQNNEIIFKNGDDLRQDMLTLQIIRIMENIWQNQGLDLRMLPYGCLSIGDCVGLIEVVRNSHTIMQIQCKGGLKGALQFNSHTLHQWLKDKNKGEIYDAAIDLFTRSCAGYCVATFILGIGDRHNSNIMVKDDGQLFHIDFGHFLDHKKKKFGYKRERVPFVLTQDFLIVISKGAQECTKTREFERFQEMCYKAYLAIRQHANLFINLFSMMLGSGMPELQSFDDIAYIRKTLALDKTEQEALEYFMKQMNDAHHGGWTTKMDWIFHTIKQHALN
# TEST METHOD NOTES: PI3KA_Act fluorescence polarization kinase assay (Ki)
# STUDY CONDITIONS: 1 mM ATP
ENDPOINT: pKi
Numbers only, as −log10 of the molar value.

Worked set:
- MOLECULE: "[2H]C1([2H])CN(c2nc(-c3cnc(N)nc3)c3c(n2)N([C@@]2(C)CCN(C(=O)C4(C)CC4)C2)CC3)CC([2H])([2H])O1"
  pKi: 10.60
- MOLECULE: "CC[C@@]1(N2CCc3c(-c4cnc(N)nc4)nc(N4CCOCC4)nc32)CCN(C(=O)OC(C)(C)C)C1"
  pKi: 9.58

As a next step, examine the molecule that follows.
### Prompt For truncated PI3Kα (p110α/iSH2 p85α) (Homo sapiens (Human), UniProt P42336), provide pKi of CS(=O)(=O)N1C[C@H]2C[C@@H]1[C@@H]2N1CCc2c(-c3cnc(N)nc3)nc(N3CCOCC3)nc21 (single isomer, unassigned) [Example 440] please.
### Response 9.75
